Each recorded value in this set is attributed to paper PMC8021118.

Recorded measurements of EC50, one per entry
- measured_target: HLA-DRB1*04:01 (Homo sapiens, UniProt P01903+P01911, A100K/A169T/F76Y/I96L/K127E/L162R/M171V/N62H/P40V/Q125Y/R42H/S133A/S149N/S66Y/V115G/V209L/W38E)
- assay_protocol: Peptide competition binding assay to HLA-DRB1*04:01
- condition_description: Supplemental Table 1; citrullinated (X) vs arginine (R) versions; cutoff in the peptide binding assay 50 μM
Where a SMILES comes first, the peptide text is derived from it. [ ]: non-standard residue; d: D form. Cit = NC(=O)NCCC[C@H](N)C(=O)O
Lab book: enter the figure in µM, no units written.

Recorded results for 3 compounds are shown here.
CC(C)C[C@H](NC(=O)[C@H](CCC(=O)O)NC(=O)[C@H](Cc1ccc(O)cc1)NC(=O)[C@H](CCC(N)=O)NC(=O)CNC(=O)[C@@H](N)CCC(N)=O)C(=O)N[C@@H](CCCNC(N)=O)C(=O)N[C@H](C(=O)N[C@@H](CC(=O)O)C(=O)N[C@@H](CC(C)C)C(=O)N[C@@H](CCCNC(=N)N)C(=O)N[C@@H](CC(=O)O)C(=O)N[C@@H](Cc1c[nH]cn1)C(=O)NCC(=O)N[C@@H](CCC(=O)O)C(=O)O)C(C)C [TNC-56XR] (H-QGQYEL[Cit]VDLRDHGE-OH) :: 8.7
CC(C)C[C@H](NC(=O)[C@H](CCCNC(=N)N)NC(=O)[C@H](Cc1ccc(O)cc1)NC(=O)[C@H](CCCNC(N)=O)NC(=O)[C@H](CC(=O)O)NC(=O)[C@@H](N)Cc1ccccc1)C(=O)N[C@@H](CC(N)=O)C(=O)N[C@@H](Cc1ccc(O)cc1)C(=O)N[C@@H](CO)C(=O)N[C@@H](CC(C)C)C(=O)N1CCC[C@H]1C(=O)N[C@H](C(=O)NCC(=O)N[C@@H](CCC(N)=O)C(=O)N[C@@H](Cc1c[nH]c2ccccc12)C(=O)O)[C@@H](C)O [TNC-22XR] (H-FD[Cit]YRLNYSLPTGQW-OH) :: 0.6
CC[C@H](C)[C@H](NC(=O)[C@H](CC(C)C)NC(=O)[C@H](CO)NC(=O)[C@@H](N)C(C)C)C(=O)N[C@@H](CO)C(=O)N[C@@H](CCCNC(=N)N)C(=O)N[C@@H](CCCNC(N)=O)C(=O)NCC(=O)N[C@@H](CC(=O)O)C(=O)N[C@@H](CCSC)C(=O)N[C@@H](CO)C(=O)N[C@@H](CO)C(=O)N[C@@H](CC(N)=O)C(=O)N1CCC[C@H]1C(=O)N[C@@H](C)C(=O)O [TNC-17RX] (H-VSLISR[Cit]GDMSSNPA-OH) :: 4.7

// moving on: another record for EC50
Documented EC50 of CC(C)C[C@H](NC(=O)[C@H](CCCNC(N)=O)NC(=O)[C@H](Cc1ccc(O)cc1)NC(=O)[C@H](CCCNC(=N)N)NC(=O)[C@H](CC(=O)O)NC(=O)[C@@H](N)Cc1ccccc1)C(=O)N[C@@H](CC(N)=O)C(=O)N[C@@H](Cc1ccc(O)cc1)C(=O)N[C@@H](CO)C(=O)N[C@@H](CC(C)C)C(=O)N1CCC[C@H]1C(=O)N[C@H](C(=O)NCC(=O)N[C@@H](CCC(N)=O)C(=O)N[C@@H](Cc1c[nH]c2ccccc12)C(=O)O)[C@@H](C)O [TNC-22RX] (H-FDRY[Cit]LNYSLPTGQW-OH) : 0.9
